cAMP IA (%) values, listed per item
TESTED_SYSTEM: T1, human GalR1 (human, UniProt P47211 1-349)
T1 sequence (looked up): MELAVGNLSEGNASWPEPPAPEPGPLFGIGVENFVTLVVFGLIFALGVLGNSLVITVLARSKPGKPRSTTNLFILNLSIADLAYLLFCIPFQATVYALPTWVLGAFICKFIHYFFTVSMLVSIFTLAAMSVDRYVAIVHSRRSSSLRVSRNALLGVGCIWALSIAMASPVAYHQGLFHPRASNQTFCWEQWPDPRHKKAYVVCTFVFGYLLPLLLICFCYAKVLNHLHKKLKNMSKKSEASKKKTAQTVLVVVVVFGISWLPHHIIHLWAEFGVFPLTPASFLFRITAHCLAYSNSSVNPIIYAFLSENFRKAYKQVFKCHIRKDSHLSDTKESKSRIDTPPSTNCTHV
ASSAY_OVERVIEW: cell-based or functional assay
No end group written: not given here.
TEST_READOUT: cAMP IA (%)

RGRGNWTLNSAGYLLGPVLPPPALALA [M1145] :: 86.7
GWTLNSAGYLLGPQPPGFSPFR [M617] :: 90.1
WTLNSAGYLLGPKKKKK (also: PEG (dPEG24) on one lysine, site not given here) [Nax409-9] :: 66
WTLNSAGYLLGPHAIDNHRSFHDKYGLA [Galanin 2-29 (rat)] :: 90.8
